# Assayed System: T1, PUF4 RNA-binding domain (Saccharomyces cerevisiae, UniProt P25339 537-888)
# T1 sequence: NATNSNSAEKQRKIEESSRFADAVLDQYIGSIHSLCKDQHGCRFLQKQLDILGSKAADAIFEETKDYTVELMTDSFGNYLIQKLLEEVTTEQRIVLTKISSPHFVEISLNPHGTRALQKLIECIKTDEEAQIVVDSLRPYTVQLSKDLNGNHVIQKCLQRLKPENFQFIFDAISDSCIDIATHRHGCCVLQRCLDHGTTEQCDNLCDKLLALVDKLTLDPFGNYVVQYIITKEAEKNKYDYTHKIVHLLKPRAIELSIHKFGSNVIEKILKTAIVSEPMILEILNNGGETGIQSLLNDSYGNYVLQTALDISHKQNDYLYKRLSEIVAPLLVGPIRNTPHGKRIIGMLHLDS
# Assay Summary: Mg; RNA-MaP; 20 mM Na-HEPES pH 7.4, 30 mM KOAc, 0.75 mM MgCl2, 0.1% Tween-20, 5% glycerol, 0.1 mg/mL BSA, 2 mM DTT; 25 C; 0.0125-409.6 nM protein
# Condition Set: tags: N-His6-TEV cleaved; C-SNAP kept, Cy3B-labelled; label: tethered on chip by stalled RNA polymerase
Experimental Endpoint: pKd
Value format note: pKd is -log10 of concentration (mol/L); just state the number.

As a guide, the following entries are already answered.
Note to self: pKd recorded for Ib_S2_P5E.1_K5.1_C5.1_H5.1_A5.1_[T6A]_F5.1_[T8C]_T5.1 (ssRNA) RNA: UUUGAUUAAUAUGAUAUCGUUCUUUCUUGUAUAACUAUUCUUUCUCGAUAUCAUAUUAAUCUUU was 8.27

Note to self: pKd recorded for Ie_S2_P5E.1_K5.1_C5.1_H5.1_A5.1_F5.1_[+9TTCC]_T5.1 (ssRNA) RNA: UUUGAUUAAUAUGAUAUCGUUCUUUCUUGUAUUAUUUUCCAUUCUUUCUCGAUAUCAUAUUAAUCUUU was 7.88

Here is the next item to consider.
Note to self: pKd recorded for Ib_S4_P4E.1_K4.1_C4.1_H4.1_A4.1_[A6T]_F4.1_[T8C]_T4.1 (ssRNA) RNA: UUUGACAACUGAUCGUUCUUUCUUGUAUUUCAUUCUUUCUCGAUCAGUUGUCUUU was 7.07
